# Target: 17β-HSD3 (Homo sapiens, UniProt P37058)
# Construct: expressed in transfected cells; host or cells: HEK-293 (homogenate)
# Sequence (P37058 whole entry): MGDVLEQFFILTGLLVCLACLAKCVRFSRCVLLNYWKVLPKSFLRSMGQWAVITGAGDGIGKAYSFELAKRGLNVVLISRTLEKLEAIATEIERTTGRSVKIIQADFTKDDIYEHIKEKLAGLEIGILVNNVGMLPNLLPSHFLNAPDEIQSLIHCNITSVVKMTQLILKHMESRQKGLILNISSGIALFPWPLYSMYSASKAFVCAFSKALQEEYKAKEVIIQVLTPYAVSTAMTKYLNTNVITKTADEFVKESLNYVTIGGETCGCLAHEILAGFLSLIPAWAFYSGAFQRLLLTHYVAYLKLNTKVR
# Test description: Inhibition of 17β-HSD3 in intact HEK-293 cells
# Type: cell-based
# Measurement setup: Table 3; 0.1 μM
Bucketed by reported Intact cells (%) (0.1 μM), buckets being bottom range: < 20%; center range: ≥ 20% and < 70%; top range: ≥ 70%

### Prompt Hi, small favor: classify C[C@]12CC[C@](O)(CN3CCN(Cc4cc(C(F)(F)F)cc(C(F)(F)F)c4)CC3)C[C@@H]1CC[C@@H]1[C@@H]2CC[C@]2(C)C(=O)CC[C@@H]12 [Compound 10j] by its Intact cells (%) (0.1 μM) when you get a moment.
### Response center range
